Give measured GI50 for each item. Keep answers brief.
- System: RXF 631
- methodNotes: NCI tumour cell line growth inhibition, 48 h
Calls of active or inactive are those of the source. Cut-off read from the data, not from the text of the source: active = GI50 up to about 1.1 µM and inactive = higher.

The molecule Cn1cnnc1Sc1c([N+](=O)[O-])nc(-c2ccc([N+](=O)[O-])cc2)n1C showed GI50 equal to 17.7 µM (inactive)

GI50 reported for this molecule COC1=C2C[C@H](O)C(C)C[C@@]2(OC)OC1=O (stereo partly specified) : > 100 µM (inactive)

molecule Cc1cc(N(CCC#N)CCC#N)ccc1/N=N/c1ccc(Br)cc1 , GI50 observed: 11.1 µM (inactive)

Field GI50 (entry COc1c(C)cc(O)cc1C=O ) reads > 100 µM (inactive)

// sample O=C(/C=C/c1ccc(Cl)c(Cl)c1)C1CCC(Cl)CC1 (stereo unspecified) , its GI50 was 18.5 µM (inactive)

Form field GI50, entry Cc1cn2c(=O)c3ncn(C4OC(CO)C(O)C4O)c3n(C)c2n1 (stereo unspecified) : > 100 µM (inactive)

###

- System: OVCAR-5
- methodNotes: NCI tumour cell line growth inhibition, 48 h
Activity calls are given as the source filed them. Cut-off read from the data, not from the text of the source: active = GI50 up to about 1.1 µM and inactive = higher. Starred links: 1 amine or outer side, 2 acyl side, 3 side chain; linkers in the order of their positions; H or OH if unused. Non-standard residues stand in square brackets, D forms with d. Residues, ends and D or L forms follow the SMILES beside them. *: point of attachment. X34 = CC(=O)N(C)SCC(N[*:1])C(=O)[*:2]; Cbz = O=C(OCc1ccccc1)*; Bn = c1ccc(C*)cc1; For = O=C*
endpointLabel: GI50

Input CC(=O)N(C)SCC(NC(=O)C(Cc1ccccc1)NC(=O)OCc1ccccc1)C(=O)NC(Cc1ccccc1)C(=O)NC(Cc1cn(C=O)c2ccccc12)C(=O)NC(CCCCNC(=O)OCc1ccccc1)C(=O)NC(C(=O)NC(CSN(C)C(C)=O)C(=O)NC(C(N)=O)C(C)OCc1ccccc1)C(C)OCc1ccccc1 (configuration not stated) (Cbz-F[X34]FW(For)K(Cbz)T(Bn)[X34]T(Bn)-NH2; configuration not given here) . Output GI50: > 100 µM (inactive)

# compound N=C(N)NS(=O)(=O)c1ccc(NC(=O)c2ccc(Cl)c3c(Nc4ccc(S(=O)(=O)N=C(N)N)cc4)c4ccccc4nc23)cc1 ; its GI50 = > 100 µM (inactive)

###

- Test system: OVCAR-8
- methodNotes: NCI tumour cell line growth inhibition, 48 h
Active and inactive are the calls of the source. Rule as the data show it: active = GI50 up to about 1.1 µM and inactive = higher.
Your reply should match one of these outcome classes. active, inactive

QUERY: Can you look up the reported call for COc1ccc(COCC[C@H](C)OC2OC(CO[Si](C)(C)C(C)(C)C)C(O)C(O)C2O)cc1 (stereo partly specified) for me?
RESULT: inactive

QUERY: Please let me know the test result on file for Cc1ccc(S(=O)(=O)c2ccsc2NC(=O)C(F)(F)F)cc1 .
RESULT: inactive

QUERY: // param item: CC(C)Cc1ccc(C(C)CC2=CCC(CN(C)C)C2=O)cc1 (stereo unspecified) ; yields the recorded call
RESULT: inactive

QUERY: Recorded call for COc1cc2oc(=O)ccc2cc1C(=O)CC(C)C ?
RESULT: inactive

QUERY: Assay outcome for CC#CCOC(=O)c1ccccc1OC(C)=O : what was it?
RESULT: inactive

QUERY: Fill in: this test's call for CCCCCC(=O)OC[n+]1ccc(-c2c(COC(=O)NC(C)C)c(COC(=O)NC(C)C)c3n2CCC3)cc1 is ___
RESULT: inactive

QUERY: Could you please tell me the result logged for O=C1N(CN2CCOCC2)CN(CN2CCOCC2)C(=O)N1Cc1ccc(CN2C(=O)N(CN3CCOCC3)CN(CN3CCOCC3)C2=O)cc1 in this assay?
RESULT: inactive

QUERY: What was the test verdict on COC(=O)c1c(O)c(C#N)c2[nH]c3ccccc3n2c1=O ?
RESULT: inactive

QUERY: # fetch the recorded call for Cc1cc2ccc(N)nc2nc1O here
RESULT: inactive

QUERY: What did the test return for CCCCCCCCCCCCCCC(C)CCC(=O)O (stereo unspecified) ?
RESULT: inactive

QUERY: Can you look up the reported call for COc1cc2c(cc1[N+](=O)[O-])C(=O)C(Br)(Br)CCC2 for me?
RESULT: inactive

QUERY: Just curious, what result did O=C(COc1ccccc1)N(C(=O)N1CCN(c2ccccc2)CC1)S(=O)(=O)c1ccccc1 get here?
RESULT: inactive

QUERY: Please indicate how the test categorized CCn1c(SC(C)C(=O)c2c(C)n(C)n(-c3ccccc3)c2=O)nc2ccccc2c1=O (stereo unspecified) .
RESULT: inactive

QUERY: # fetch the recorded call for NS(=O)(=O)c1ccc(NC(=S)N/C=C2\C(=O)Nc3ccccc3C2=O)cc1 here
RESULT: inactive

QUERY: For CC(NC(NC(C)C12CC3CC(CC(C3)C1)C2)=C(C(Cl)=C(Cl)Cl)[N+](=O)[O-])C12CC3CC(CC(C3)C1)C2 (stereo unspecified) , what call appears in the results of this test?
RESULT: inactive

QUERY: // outcome(item) with item = CC(C)(C)/N=C\N1CCC(C(c2ccccc2)c2ccccc2)CC1
RESULT: inactive

QUERY: What outcome does the record of this test show for N=C(N)NS(=O)(=O)c1ccc(NC(=O)c2ccc(Cl)c3c(Nc4ccc(S(=O)(=O)N=C(N)N)cc4)c4ccccc4nc23)cc1 ?
RESULT: inactive

QUERY: Please state the recorded outcome for this molecule: O=C1OC(=O)C2C1C(c1ccccc1[N+](=O)[O-])C=C(c1ccco1)N2c1ccncc1 (stereo unspecified)
RESULT: inactive

QUERY: Name the outcome recorded for O=C(c1ccccc1)c1ccc2c(c1)nc1n2C(c2c(F)cccc2F)SC1 (stereo unspecified) in the assay.
RESULT: inactive

QUERY: What did the test return for O=C(c1ccccc1)N1CCN2CCN=C(c3ccccc3)C21c1ccccc1 (stereo unspecified) ?
RESULT: inactive

QUERY: Could you please tell me the result logged for COc1ccc2nc3ccc(OC)cc3c(SCC3CO3)c2c1 (stereo unspecified) in this assay?
RESULT: inactive

QUERY: For this molecule, state the assay outcome: CC(C)(C)OC(=O)NC(Cc1ccccc1)OCc1ccccc1 (stereo unspecified)
RESULT: inactive

QUERY: Entry CCCCCCCC(CC(=O)O)OC(=O)CC(CCCCCCC)OC1OC(C)C(O)C(O)C1OC1OC(C)C(O)C(O)C1O (stereo unspecified) : call = ?
RESULT: inactive

QUERY: # outcome recorded in this test, key = CCN(CC)[C@@H]1c2cc3c(cc2C(c2cc(OC)c(O)c(OC)c2)C2C(=O)CO[C@@H]21)OCO3 (stereo partly specified)
RESULT: inactive

QUERY: Write down the call the test reported for this molecule. Item: CN(C)CCN(/C(=N/c1ccccc1)N1CCCC1)c1ccccc1
RESULT: inactive

QUERY: Dear all, I need the recorded test outcome for O=C(O)c1ccccc1/C=N/N=C1NCCN1 , thank you.
RESULT: inactive

QUERY: Write down the call the test reported for this molecule. Item: SCCCSCCSCCCSCCS
RESULT: inactive

QUERY: For CCOC(=O)/C=C/[C@H](O[Si](CC)(CC)CC)C(C)(C)C , what call appears in the results of this test?
RESULT: inactive

QUERY: I would be grateful if you could indicate the recorded call for CN1C(=O)C23CCCC2CC1(c1ccccc1)S3 (stereo unspecified) .
RESULT: inactive

QUERY: Call for entry CC1(C)C=C(/C=N/Nc2ccc(Br)cc2)C(C#N)=C(O)C1(C#N)C#N :
RESULT: inactive

QUERY: Could you check what this test reported for CC(=O)O[C@H]1C(=O)[C@@]2(C)[C@H]([C@H](OC(=O)c3ccccc3)[C@]3(O)C[C@H](OC(=O)[C@H](O)[C@@H](NC(=O)CC(C)(C)C)c4ccccc4)C(C)=C1C3(C)C)C1(OC(C)=O)CO[C@@H]1C[C@@H]2O (stereo partly specified) ?
RESULT: active

QUERY: Hey, what did the test say about COC(=O)CNC(=O)CCSc1nnc(COc2ccc(Cl)cc2)n1-c1ccccc1 ?
RESULT: inactive

QUERY: GET /call?item= C[N+](C)(C)CC1CCCC(C[N+](C)(C)C)C1=NO (stereo unspecified) returns the recorded outcome of this test.
RESULT: inactive

QUERY: I'd appreciate the recorded outcome for COc1ccc(N2C(=O)/C(=C/c3ccc(N(CCC#N)CCC#N)cc3)N=C2c2ccccc2)cc1 from this test.
RESULT: inactive

QUERY: What did this assay record as the result for CCOC(=O)C(C)c1nc2cc(N3CCN(C)CC3)c(F)cc2[nH]c1=O (stereo unspecified) ?
RESULT: inactive

QUERY: Hi team, can someone confirm the assay call for CC1(C)OC2CN(C(=O)OCc3ccccc3)C(CO)C2O1 (stereo unspecified) ?
RESULT: inactive

QUERY: I'd appreciate the recorded outcome for COC(=O)CC(CNC(=O)OCc1ccccc1)OCc1ccc(OC)cc1 (stereo unspecified) from this test.
RESULT: inactive

QUERY: Dear all, I need the recorded test outcome for CC1(C)S[C@H](CN)N[C@H]1C(=O)OC(c1ccccc1)c1ccccc1 , thank you.
RESULT: inactive

QUERY: Answer briefly: the call reported for Oc1[nH]c(Nc2ccc(Cl)c(C(F)(F)F)c2)nc2ncnc1-2 in this assay.
RESULT: inactive

QUERY: GET /call?item= CSCCC(N)C(=O)NCCNc1ccc(NCCNC(=O)C(N)CCSC)c2c1C(=O)c1ccccc1C2=O (stereo unspecified) returns the recorded outcome of this test.
RESULT: active

QUERY: I'd appreciate the recorded outcome for Clc1cc(Cl)c2n[se]nc2c1 from this test.
RESULT: inactive
